Data origin, for the record: a melting point compilation (Tetko et al.)

Overview of reported melting point across a group of molecules:

MOLECULE	melting point
COc1cc(-n2cnnn2)c(Cl)cc1C(=O)O	331 to 333 °C
CCC(C(=O)O)n1nnc(-c2ccc(Cl)cc2)n1 (stereo unspecified)	184 to 186 °C
Cc1cc(=O)[nH]cc1C(=O)O	306 to 308 °C
COC(=O)CCNc1ccc(C)cc1	59 to 61 °C
N#Cc1ccc(S(=O)(=O)NC2CC2)cc1	99 to 101 °C
Cc1cc(C)c2c(N)c(C(=O)N3CCOCC3)sc2n1	147 to 149 °C
CC1Oc2c(C(=O)O)cccc2C1C (stereo unspecified)	96 to 100 °C
O=C(Nc1ccc(Cl)cn1)C1CCNCC1	137 to 139 °C
O=C1C=C(Br)C(=O)N1	151 to 153 °C
c1cnc(N2CCN(c3ncccn3)CC2)nc1	144 to 146 °C
CC(C)(C)OC(=O)NCC1CCCCC1O (stereo unspecified)	57 to 59 °C
COCCn1cc(C(=O)O)ccc1=O	185 to 187 °C
CC(C)(C)OC(=O)NCCCC(=O)NN	114 to 116 °C
O=S1(=O)CCC(c2nnc(S)o2)C1 (stereo unspecified)	181 to 183 °C
Nn1ccccc1=O	41 to 43 °C
NC(=O)c1cnn2c(C(=O)O)ccnc12	199 to 201 °C
Cc1c(N)cccc1COc1ccccc1	94 to 96 °C
N#Cc1ccc(F)c(CO)c1	48 to 50 °C
Cc1ccc(Cl)c2c1C(=O)C(=O)N2	209 to 211 °C
Cc1noc(-c2ccc(C)c([N+](=O)[O-])c2)n1	100 to 102 °C
Nc1ccc(S(N)(=O)=O)cc1[N+](=O)[O-]	206 to 208 °C
Cc1cc(Cl)c(N)c(C(=O)O)c1	201 to 203 °C
Nc1nc2cnccc2s1	275 to 277 °C
COc1ccccc1NS(=O)(=O)c1cc(C(=O)O)ccc1Cl	176 to 178 °C
O=C(CCl)c1c(-c2ccccc2)[nH]c2ccccc12	140 to 142 °C
NCCCN1CCCC(C(N)=O)C1 (stereo unspecified)	71 to 73 °C
NCCCc1n[nH]c(N)c1-c1nc2ccccc2s1	313 to 315 °C
CCC(C)NS(=O)(=O)c1cccc(N)c1 (stereo unspecified)	89 to 91 °C
O=C(O)c1cn(-c2ccccc2)nc1-c1cccnc1	238 to 240 °C
CC(=O)c1cn(-c2ccccc2)nn1	102 to 104 °C
COC(=O)C1CCCc2[nH]ncc21 (stereo unspecified)	84 to 86 °C
Nc1ccc(F)c(NC(=O)CCN2CCOCC2)c1	119 to 121 °C
O=C1Nc2cc(N3CCCC3)ccc2C1=O	293 to 295 °C
Cc1ccc(OCCCC(=O)Nc2ccc(C#N)cc2)cc1	126 to 128 °C
NC(CC(=O)O)C1CCOCC1 (stereo unspecified)	228 to 230 °C
Clc1ncnc2c1CCCCC2	50 to 52 °C
c1cc2c(cn1)ncn2C1CC1	53 to 55 °C
O=C(O)c1cc2c(=O)n3ccccc3nc2n1Cc1ccccc1	257 to 259 °C
COc1ccc(-c2[nH]c3ccccc3c2CCC(=O)O)c(OC)c1	167 to 169 °C
Cc1ccn2c(C=O)cnc2c1	80 to 82 °C
Cc1ccc(Br)c2cccnc12	34 to 36 °C
CN(C)/C=C(/C#N)C(N)=O	166 to 168 °C
ClCc1coc(-c2ccccc2Br)n1	46 to 48 °C
NNC(=O)c1cc2sccc2cn1	204 to 206 °C
Cc1ccc(S(=O)(=O)N2CCCCC2C(=O)O)cc1 (stereo unspecified)	100 to 102 °C
NC(=O)CNc1ccccc1	139 to 141 °C
CCC1CCC2(CC1)NC(=O)NC2=O (stereo unspecified)	230 to 232 °C
CC1(O)CCC(N)CC1 (stereo unspecified)	89 to 91 °C
Cc1ccc(-c2n[nH]cc2Br)cc1	104 to 106 °C
NNC(=O)c1ccc(Cl)cc1F	135 to 137 °C
Nc1nc2c(s1)CN(Cc1ccccc1)CC2	95 to 98 °C
Cc1c(C(N)=O)cccc1[N+](=O)[O-]	163 to 165 °C
Cc1nc(Cl)c2cc(-c3ccccc3)sc2n1	114 to 116 °C
O=C(O)C(Cc1ccccc1)NC(=O)C(c1ccccc1)c1ccccc1 (stereo unspecified)	149 to 151 °C
CN1CCN(CCOc2ccc(N)cc2)CC1	63 to 65 °C
CCC(Oc1cccc(C)c1)C(=O)O (stereo unspecified)	72 to 74 °C
